Entry source: ChEMBL document CHEMBL3792365

Test: Growth inhibition of human UACC62 cells at 10 uM after 48 hrs by sulforhodamine B assay
Assay type: functional
Settings: UACC-62, 48 h, values are per cent of control
Could you please mark Met for values of growth, % of control at 10 µM below 50% and Not met for values at or above it?

substance_smiles=N#C/C(=C\c1cc(Br)cc(Br)c1)c1ccc2c(c1)OCO2 assigned_class="Not met"
substance_smiles=N#C/C(=C\c1cccnc1Cl)c1ccc2c(c1)OCO2 assigned_class="Not met"
substance_smiles=N#C/C(=C\c1c(Cl)cccc1Cl)c1ccc2c(c1)OCO2 assigned_class="Not met"
substance_smiles=COc1ccc(/C=C(\C#N)c2ccc3c(c2)OCO3)cc1 assigned_class=Met
substance_smiles=COc1ccc(/C(C#N)=C/c2ccc3c(c2)OCCO3)cc1 assigned_class="Not met"
substance_smiles=COc1ccc(/C=C(\C#N)c2ccc3c(c2)OCO3)cn1 assigned_class="Not met"
substance_smiles=COc1ccc(/C=C(\C#N)c2ccc3c(c2)OCO3)cc1OC assigned_class="Not met"
substance_smiles=COc1ccc(/C(C#N)=C/c2ccc3c(c2)OCO3)cc1 assigned_class="Not met"
substance_smiles=COc1ccc(/C=C(\C#N)c2ccc3c(c2)OCO3)c2ccccc12 assigned_class=Met
substance_smiles=COc1ccc(/C=C(\C#N)c2ccc3c(c2)OCO3)c(OC)c1 assigned_class=Met
substance_smiles=COc1cc(/C(C#N)=C/c2ccc3c(c2)OCCO3)cc(OC)c1OC assigned_class=Met

====

System: CCRF-CEM
Test: Growth inhibition of human CCRF-CEM cells after 48 hrs by sulforhodamine B assay
Format: functional
measurement label: GI50 (nM)

substance_smiles=COc1ccc(/C=C/c2cc(OC)c(OC)c(OC)c2)cc1 target_or_system=CCRF-CEM measurement_label=GI50 unit_descriptor=nM measurement_qualifier== reading=2890
substance_smiles=COc1ccc(/C(C#N)=C/c2ccc3c(c2)OCCO3)cc1 target_or_system=CCRF-CEM measurement_label=GI50 unit_descriptor=nM measurement_qualifier=> reading=100000
substance_smiles=COc1ccc(/C=C(\C#N)c2ccc3c(c2)OCO3)c2ccccc12 target_or_system=CCRF-CEM measurement_label=GI50 unit_descriptor=nM measurement_qualifier== reading=1910

====

Test system: NCI-H522
Assay: Growth inhibition of human NCI-H522 cells after 48 hrs by sulforhodamine B assay
Format: functional
Conditions: NCI-H522, 48 h
measurement label: log10(GI50) (log10 of the value in µM)

substance_smiles=COc1ccc(/C=C(\C#N)c2ccc3c(c2)OCO3)c(OC)c1 measurement_label=log10(GI50) reading=0.41
substance_smiles=COc1cc(/C(C#N)=C/c2ccc3c(c2)OCCO3)cc(OC)c1OC measurement_label=log10(GI50) reading=-1.30
substance_smiles=COc1ccc(/C=C(\C#N)c2ccc3c(c2)OCO3)cc1 measurement_label=log10(GI50) reading=-1.40
substance_smiles=COc1ccc(/C(C#N)=C/c2ccc3c(c2)OCCO3)cc1OC measurement_label=log10(GI50) reading=0.45
substance_smiles=COc1ccc(/C=C(\C#N)c2ccc3c(c2)OCO3)c2ccccc12 measurement_label=log10(GI50) reading=0.37
substance_smiles=N#C/C(=C\c1cc2ccccc2s1)c1ccc2c(c1)OCO2 measurement_label=log10(GI50) reading=-1.70
substance_smiles=COc1ccc(/C=C/c2cc(OC)c(OC)c(OC)c2)cc1 measurement_label=log10(GI50) reading=0.57
substance_smiles=N#C/C(=C\c1cccc2ccccc12)c1ccc2c(c1)OCO2 measurement_label=log10(GI50) reading=0.46
